Answer each item with its documented selectivity ratio.
Experiment: Selectivity index, ratio of GIC50 for cytotoxicity against mouse RAW264.7 cells to MIC for Mycobacterium tuberculosis H37Rv ATTC 27294
Type: toxicity, cell-based
Conditions: read-out: Selectivity Index
Numbers only.

Compound: Cc1c(CN2CCN(C34CC5CC(CC(C5)C3)C4)CC2)cc(-c2ccc(Cl)cc2)n1-c1ccc(Cl)cc1
selectivity ratio: 2.9
--
Compound: Cc1c(CN2CCN(c3ccccc3)CC2)cc(-c2ccc(Cl)cc2)n1-c1ccc(Cl)cc1
selectivity ratio: 92
--
Compound: Cc1cc(CN2CCN(C3C4CC5CC(C4)CC3C5)CC2)c(C)n1-c1ccc(Cl)cc1 (stereo unspecified)
selectivity ratio: 0.7
--
Compound: Cc1cc(CNC2CCCCC2)c(C)n1-c1ccc(Cl)cc1
selectivity ratio: 50
--
Compound: Cc1c(CN2CCN(C)CC2)cc(-c2ccc(Cl)cc2)n1-c1ccc(Cl)cc1
selectivity ratio: 19

List reported selectivity ratio for each of these compounds:
1. Cc1c(CN2CCN(C3C4CC5CC(C4)CC3C5)CC2)cc(-c2ccc(Cl)cc2)n1-c1ccc(Cl)cc1 (stereo unspecified)
2. Cc1cc(CNCc2ccccc2)c(C)n1-c1ccc(Cl)cc1
3. Cc1cc(CN2CCN(C34CC5CC(CC(C5)C3)C4)CC2)c(C)n1-c1ccc(Cl)cc1
4. Cc1cccc(-n2c(C)cc(CN3CCN(C4C5CC6CC(C5)CC4C6)CC3)c2C)c1 (stereo unspecified)
5. Cc1cc(CN2CCN(c3ccccc3)CC2)c(C)n1-c1ccc(Cl)cc1

[A]
[1.5, 11, 0.006, 1.4, 4.2]

From: ChEMBL document CHEMBL3797154
